test-description: Apparent permeability across apical to basolateral side in human Caco2 cells at 2 uM after 2 hrs by LC-MS/MS analysis
Assay type: ADME, cell-based
run-parameters: Caco-2
property-label: Papp A→B at 2 h, 2 µM (×10⁻⁶ cm/s)
Numeric answer only, unit ×10⁻⁶ cm/s assumed.

Challenge: Recorded Papp A→B at 2 h, 2 µM of CN1CCN(c2cnc3c(C4CCN(C(=O)c5ccc(OC(F)(F)F)cc5N)CC4)ncnc3c2)CC1 , please.
Response given: 18.4

----------
test-description: Lipophilicity, log D of the compound in acetonitrile/water at 1:1 ratio at pH 7.5 by RP-HPLC analysis
Assay type: physicochemical
run-parameters: acetonitrile/water 1:1 (RP-HPLC)
property-label: chromatographic logD
Please state the value as a number alone, without comment.

Challenge: Which chromatographic logD value is on record for CN1CCN(c2cnc3c(C4CCN(C(=O)c5ccc(OC(F)(F)F)cc5N)CC4)ncnc3c2)CC1 ?
Response given: 2.4

----------
test-description: Aqueous solubility of the compound in DMSO at 6.5 after 24 hrs by HPLC-MS/MS analysis
Type: physicochemical
run-parameters: aqueous medium with DMSO, pH 6.5
property-label: solubility at 24 h

Challenge: Param item = CN1CCN(c2cnc3c(C4CCN(C(=O)c5ccc(OC(F)(F)F)cc5N)CC4)ncnc3c2)CC1 ; retrieve measured solubility at 24 h.
Response given: 218 µg/mL

----------
test-description: Apparent permeability across basolateral to apical side in human Caco2 cells at 2 uM after 2 hrs by LC-MS/MS analysis
Assay type: ADME, cell-based
run-parameters: Caco-2
property-label: Papp B→A at 2 h, 2 µM (×10⁻⁶ cm/s)
Your answer should be a plain number; it is taken to be in ×10⁻⁶ cm/s.

Challenge: Query (compound): CN1CCN(c2cnc3c(C4CCN(C(=O)c5ccc(OC(F)(F)F)cc5N)CC4)ncnc3c2)CC1 [BAY-885] ; field requested: Papp B→A at 2 h, 2 µM
Response given: 10.7
